biological target: 3-oxoacyl-[acyl-carrier-protein] synthase 1 (Mycobacterium tuberculosis)
Sequence (P9WQD9 whole entry): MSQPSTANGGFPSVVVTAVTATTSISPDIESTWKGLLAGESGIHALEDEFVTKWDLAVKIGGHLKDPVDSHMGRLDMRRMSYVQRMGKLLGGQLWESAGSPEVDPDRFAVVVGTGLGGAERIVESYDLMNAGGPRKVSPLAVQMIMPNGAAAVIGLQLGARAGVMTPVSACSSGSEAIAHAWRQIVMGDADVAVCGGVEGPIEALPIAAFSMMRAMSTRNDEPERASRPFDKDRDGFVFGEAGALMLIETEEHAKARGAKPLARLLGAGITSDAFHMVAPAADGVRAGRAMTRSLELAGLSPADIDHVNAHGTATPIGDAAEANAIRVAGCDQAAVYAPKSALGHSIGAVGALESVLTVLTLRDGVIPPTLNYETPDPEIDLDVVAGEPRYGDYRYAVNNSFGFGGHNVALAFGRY
readout_type: pIC50
Give only the number. pIC50 is defined as minus log10 of concentration in molar units.

Query string: Any idea what pIC50 was measured for CCCCCCCc1cc(O)c(CCCCCC)c(=O)o1 [PSEUDOPYRONINES B] ?
Result string: 5.42

----------
Reported MIC values follow for various molecules
tested on: Mycobacterium tuberculosis; test: Antimycobacterial activity against Mycobacterium tuberculosis; type: functional

Answered examples (4):
O=C1c2ccccc2-c2c3c(cc4ccnc1c24)OCO3	12.5 mg/L
O=C(CCCCCCCCCCCC[C@H]1C=CCC1)OCC(O)CO (some centres not stated)	11.3 µM
C/C=C/C(=O)OC[C@H]1O[C@@H](Oc2cccc3cc(C)c(C(C)=O)c(O)c23)[C@H](O)[C@@H](O)[C@@H]1O [RUMEXNEPOSIDE A]	20.7 µM
C=C[C@@]1(C)C=C2CC[C@@H]3[C@](C)(CCC[C@@]3(C)C(=O)O)[C@H]2CC1	50 mg/L

Query string: Form: Entry = CC(C)C(O)C(=O)N/C=C\C=C/NC(=O)C(O)C(C)C (configuration not stated) [PHOMOENAMIDE] | System = Mycobacterium tuberculosis | MIC = ____
Result string: 6.25 mg/L

Query string: Form: Entry = CC(=O)c1c(C)cc2cccc(O[C@@H]3O[C@H](CO)[C@@H](O)[C@H](O)[C@H]3O)c2c1O | System = Mycobacterium tuberculosis | MIC = ____
Result string: 26.6 µM

Query string: Form: Entry = COc1c(O)cc2c(c1CC=C(C)C)C(=O)c1c(cc(OS(=O)(=O)O)c(CC=C(C)C)c1O)C2 | System = Mycobacterium tuberculosis | MIC = ____
Result string: 6.75 µM
